Listing of entries alongside the reported CC50.
experiment: cytotoxicity toward the human HepG2 cell line (CC50); settings: HepG2 cells
Answer in µM, number only, no unit symbol.

Here are 5 compounds together with their reported answers.
1) O=[N+]([O-])c1cccc(S(=O)(=O)Nc2nc(C(Cl)(Cl)Cl)nc3ccccc23)c1 [8k]    120
2) O=S(=O)(Nc1nc(C(Cl)(Cl)Cl)nc2ccccc12)c1ccc(Br)cc1 [8f]    57.4
3) O=S(=O)(Nc1nc(C(Cl)(Cl)Cl)nc2ccccc12)c1ccccc1F [8i]    136
4) O=[N+]([O-])c1ccc(S(=O)(=O)Nc2nc(C(Cl)(Cl)Cl)nc3ccccc23)cc1 [8j]    88.3
5) O=S(=O)(Nc1nc(C(Cl)(Cl)Cl)nc2ccccc12)c1ccc(C(F)(F)F)cc1 [8m]    49

In the following, a different compound is considered.
For O=S(=O)(Nc1nc(C(Cl)(Cl)Cl)nc2ccccc12)c1ccc(Cl)cc1 [8e] the compound record lists CC50 as 71.1

====

test: in vitro; details: human
OUTCOME MEASURE: CC50 (nM)
Answer in nM, number only, no unit symbol.

For "COc1cccc2c1C(=O)c1c(O)c3c(c(O)c1C2=O)C[C@@](O)(C(=O)CO)C[C@@H]3O[C@H]1C[C@H](N)[C@H](O)[C@H](C)O1" the compound record lists CC50 as 200

====

test: cytotoxicity toward the human HepG2 cell line (CC50); details: HepG2 cells
Listing of entries alongside the reported CC50.
Answer in µM, number only, no unit symbol.

1) O=S(=O)(Nc1nc(C(Cl)(Cl)Cl)nc2ccccc12)c1cccc(F)c1 [8h]    106

For COc1ccc(S(=O)(=O)Nc2nc(C(Cl)(Cl)Cl)nc3ccccc23)cc1 [8c] the compound record lists CC50 as 102

For O=S(=O)(Nc1nc(C(Cl)(Cl)Cl)nc2ccccc12)c1ccccc1C(F)(F)F [8o] the compound record lists CC50 as 73.8

For O=S(=O)(Nc1nc(C(Cl)(Cl)Cl)nc2ccccc12)c1ccc(-c2ccccc2)cc1 [8p] the compound record lists CC50 as 38.2

For O=S(=O)(Nc1nc(C(Cl)(Cl)Cl)nc2ccccc12)c1ccc(F)cc1 [8g] the compound record lists CC50 as 69.5

For CS(=O)(=O)Nc1nc(C(Cl)(Cl)Cl)nc2ccccc12 [8t] the compound record lists CC50 as 241

For O=[N+]([O-])c1ccccc1S(=O)(=O)Nc1nc(C(Cl)(Cl)Cl)nc2ccccc12 [8l] the compound record lists CC50 as 126

For O=S(=O)(Nc1nc(C(Cl)(Cl)Cl)nc2ccccc12)c1cccs1 [8s] the compound record lists CC50 as 121

For Cc1ccc(S(=O)(=O)Nc2nc(C(Cl)(Cl)Cl)nc3ccccc23)cc1 [8b] the compound record lists CC50 as 68.7

====

OUTCOME MEASURE: melting point (°C)
Answer in °C, number only, no unit symbol.

1. CS(=O)(=O)Nc1nc(C(Cl)(Cl)Cl)nc2ccccc12    186

For "O=[N+]([O-])c1cccc(S(=O)(=O)Nc2nc(C(Cl)(Cl)Cl)nc3ccccc23)c1" the molecule record lists melting point as 204

For "COc1ccc(S(=O)(=O)Nc2nc(C(Cl)(Cl)Cl)nc3ccccc23)cc1" the molecule record lists melting point as 196
